Cited source: paper PMC5515859

System: human liver cytosol
experiment.description: Incubation of F18 with human liver cytosol, metabolite profiling
Assay type: in vitro ADME
Parameters: key: +: Metabolite detected; −: metabolite not detected
stated.conditions: F18 50 μM, 1 h, NADPH
reported.endpoint: F18 metabolite detected in HLcy with NADPH

Here is how some molecules turned out for F18 metabolite detected in HLcy with NADPH.
[[record]]
molecule = "CCCc1cc(=O)oc2c3c(c4c(c12)OC(C)(C)C=C4)O[C@H](CCl)C[C@@H]3O (relative stereo) [Metabolite M3-2, cis-12-hydroxy F18]"
reported_value = "+"

[[record]]
molecule = "CC=Cc1cc(=O)oc2c3c(c4c(c12)OC(C)(C)C=C4)OC(CCl)CC3=O (centres unmarked) [Metabolite M2-9]"
reported_value = "−"

[[record]]
molecule = "CCC(O)c1cc(=O)oc2c3c(c4c(c12)OC(C)(C)C=C4)OC(CCl)CC3=O (centres unmarked) [Metabolite M5-4]"
reported_value = "−"

[[record]]
molecule = "CC(O)Cc1cc(=O)oc2c3c(c4c(c12)OC(C)(C)C=C4)OC(CCl)CC3=O (centres unmarked) [Metabolite M5-2]"
reported_value = "−"


Input line: Report measured F18 metabolite detected in HLcy with NADPH; entry is CCCc1cc(=O)oc2c3c(c4c(c12)OC(C)(C)C=C4)O[C@H](CCl)C[C@H]3O (relative stereo) [Metabolite M3-1, trans-12-hydroxy F18]
Output line: +

Input line: Report measured F18 metabolite detected in HLcy with NADPH; entry is CCC(O)c1cc(=O)oc2c3c(c4c(c12)OC(C)(C)C=C4)OC(CCl)CC3=O (centres unmarked) [Metabolite M5-5]
Output line: −

Input line: Report measured F18 metabolite detected in HLcy with NADPH; entry is CCCc1cc(=O)oc2c3c(c4c(c12)OC(C)(C)C=C4)OC(CO)CC3=O (centres unmarked) [Metabolite M1]
Output line: −

Input line: Report measured F18 metabolite detected in HLcy with NADPH; entry is CC(O)Cc1cc(=O)oc2c3c(c4c(c12)OC(C)(C)C=C4)OC(CCl)CC3=O (centres unmarked) [Metabolite M5-3]
Output line: −
